Would you kindly list abundance fitness for each of these variants?
B1: SH3 and PX domain-containing protein 2B, residues 155 to 209; numbered along this chain, A1X283 (parent)
chain: EQYVVVANYQKQESSEISLSVGQVVDIIEKNESGWWFVSTAEEQGWVPATCLEGQ

- Variants of: B1
- protocol-notes: abundance fitness (aPCA) (normalised: wild type 0, dead -1); higher = more abundant; growth selection in yeast, the domain comes from the species named
- condition-info: Homo sapiens
Give only the figure.

(Q) Name the recorded abundance fitness for F37S .
(A) -0.109

(Q) Name the recorded abundance fitness for G22W .
(A) -0.834

(Q) Name the recorded abundance fitness for K11Y .
(A) -0.465

(Q) Name the recorded abundance fitness for I27S .
(A) -0.404

(Q) Name the recorded abundance fitness for P48C .
(A) -0.614

(Q) Name the recorded abundance fitness for D26P .
(A) -0.928

(Q) Name the recorded abundance fitness for Q12R .
(A) -0.066

(Q) Name the recorded abundance fitness for A41I .
(A) 0.045

(Q) Name the recorded abundance fitness for N8E .
(A) -0.068
